These data points were gathered from paper PMC7259638.

Test system: MRP2
assay_notes: Effects of influx/efflux transporter inhibitors and CO on morroniside transport in Caco-2 cell monolayers
Assay type: in vitro ADME, human
measurement_conditions: human, Caco-2, pH 7.4; 25 μM morroniside; BL to AP; with indomethacin 200 μM; read-out: PappBA (mean)
experimental_endpoint: Papp B→A at 180 min, 25 μM
Mention the unit after the number when you answer.

query: State Papp B→A at 180 min, 25 μM (MRP2) of COC(=O)C1=CO[C@@H](O[C@@H]2O[C@H](CO)[C@@H](O)[C@H](O)[C@H]2O)[C@@H]2[C@H](C)O[C@@H](O)C[C@H]12 [morroniside, Morroniside] .
result: 33 nm/s
